# test-summary: Cmax in Sprague-Dawley rat at 2 mg/kg, po
# Assay type: ADME, organism-based
# Design: dose 2 mg/kg, route oral
# setup-conditions: in vivo
readout: Cmax (ng/mL)

Some compounds with recorded Cmax:
| chemical-smiles | readout-units | Cmax |
| --- | --- | --- |
| Cc1ccc(NC(=O)c2cccc(C(F)(F)F)c2)cc1C(=O)Nc1cnc(Nc2ccc(N3CCN(C)CC3)cc2)nc1 | ng/mL | 49 |
| Cc1ccc(NC(=O)c2cccc(C(F)(F)F)c2C)cc1C(=O)Nc1cnc(Nc2ccc(N3CCN(C)CC3)cc2)nc1 | ng/mL | 28 |
| Cc1ccc(NC(=O)c2ccc3c(c2)OC(F)(F)O3)cc1C(=O)Nc1cnc(Nc2ccc(N3CCN(C)CC3)cc2)nc1 | ng/mL | 16 |

A: COc1cc(OC)cc(C(=O)Nc2ccc(C)c(C(=O)Nc3cnc(Nc4ccc(N5CCN(C)CC5)cc4)nc3)c2)c1
B: Cc1ccc(NC(=O)c2cc(F)cc(C(F)(F)F)c2)cc1C(=O)Nc1cnc(Nc2ccc(N3CCN(C)CC3)cc2)nc1
Task item: Kindly compare A with B and tell me which has the lower Cmax figure. Please identify the chosen entry by its label.
Reply: B
